B1: CDC14A (parent)
chain: LNLAMVYRYCCKLNKKLKSYSLSR

variants of: B1; assay: protein stability index of a GFP-peptide fusion (GPS, HEK-293T) (PSI 1-6); higher = more stable; settings: c terminus: a fixed tail appended;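 further: lentivirally expressed fusions sorted by FACS into six bins by GFP to DsRed ratio, PSI derived from sequencing read proportions per bin multiplied by bin number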
protein stability index overview

[[record]]
variant_key = "C11K"
obs_value = 3

[[record]]
variant_key = "Y9D"
obs_value = 2.91


Next up:
Please give the measured protein stability index for this variant: `S23Y` 2.97
